Please go through the items and note down their pIC50.
# target_of_assay: S. schleiferi DXR enzyme (Staphylococcus schleiferi, UniProt A0ABF7SXB4)
# Sequence (A0ABF7SXB4 entry or part of it): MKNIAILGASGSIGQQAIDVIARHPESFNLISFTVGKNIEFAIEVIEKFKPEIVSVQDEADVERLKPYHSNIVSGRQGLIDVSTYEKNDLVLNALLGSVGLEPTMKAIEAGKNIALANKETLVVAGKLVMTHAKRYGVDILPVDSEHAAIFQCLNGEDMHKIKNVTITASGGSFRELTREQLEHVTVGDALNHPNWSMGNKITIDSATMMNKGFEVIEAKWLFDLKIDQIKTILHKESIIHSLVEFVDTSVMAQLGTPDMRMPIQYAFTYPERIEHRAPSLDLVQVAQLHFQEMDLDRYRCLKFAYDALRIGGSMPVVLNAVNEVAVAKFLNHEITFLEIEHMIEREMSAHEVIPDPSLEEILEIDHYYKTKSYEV
# method: S. schleiferi DXR enzyme activity and inhibition (NADPH oxidation at 340 nm)
# Type: biochemical
# run_conditions: purified recombinant enzyme; mean ± SEM; read-out: S. schleiferi DXR enzyme IC50
Give bare numbers, as −log10 of the molar value.

>  <structure_notation>
O=CN(O)CCCP(=O)(O)O

>  <recorded_result>
6.17

$$$$

Attention now shifts to the item below.
Record CC(C)(C)C(=O)OCOP(=O)(/C=C/CN(O)C=O)OCOC(=O)C(C)(C)C / S. schleiferi DXR enzyme (Staphylococcus schleiferi, UniProt A0ABF7SXB4), pIC50 recorded as 4.90
